- Test system: T1, (PR)15: H-C(PR)15-OH
- T1 construct: synthetic, not coupled to BSA; also called poly-PR DPR protein peptide
- T1 peptide: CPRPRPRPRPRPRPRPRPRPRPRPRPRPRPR
- Protocol details: indirect ELISA, coated peptide
Measured parameter: binding result

NI-308.4M1 (antibody, V domains shown, Recombinant complete human IgG1, kappa) VH: EVQLVETGGGVVQPGGSLRLSCEASGFTIGTYAMHWVRQFPGKGLDWVAVISFDGTTEYYTDAVKGRFTISRDNAKNTLYLQMNYLRGDDTAIYFCARDFTSSGETGSWTQVPDLWGQGTLVTVSS VL: CEIVMTQSPATLSLSPGERATLSCRASQSVTKYLAWYQQKPGQAPRLLIYDVSYRAAGTPARFSGSGSGTDFTLTISSLEPEDFAVYYCHQRSSWPPVTFGGGTKVEIK ... no binding
NI-308.15O7 (antibody, V domains shown) VH: QVQLVESGGGVVQPGRSLRLSCAASGFTFSNHAMHWVRQAPGKGLEWVAVISYDGENTYYADSIEGRFTISRDNFKNTLFLQMYSLTADDTAMYFCARGGRRGHFTSYYLDYWGQGTLVTVSS VL: CDIQMTQSPSSLSASVGDRVTITCRASQNIDKYLNWYQQIPGKAPKLLIYAASSLHSGVPSRFSGSGSGTDFSLTISSLQPEDFAIYYCQQSYSSFRTFGQGTKLEIK ... no binding
NI-308.5G2 (antibody, V domains shown, Recombinant complete human IgG1, kappa) VH: EVQLVQSGADLRNPGASVTVSCTASGYHFADNAINWLRQAPGQRLEWMGWINIYSGNTKYSQNFQGRVTFTRNTSASTAFMHLRSLRSEDTAVYFCARDPDSSGYYLPYFDYWGQGTLVTVSS VL: DIQLTQSPDSLTLSLGERATINCKSSQSVFYNSNNKNYLAWYQQKPGQPPKLLMYWASTRESGVTDRFSGSGSGTDFTLTITNLQAEDVAVYYCQQFYSSPLTFGGGTKVEIK ... no binding
